Provide the recorded pIC50 for the entries that follow.
test system: H9c2; assay: cardiomyocyte survival under oxidative or metabolic stress – cell-based, panel, H9c2 and HL-1, H2O2, 2-deoxyglucose, ATP luminescence, SAR follow-up (AID 651642); details: H9c2/HL-1 cardiomyocyte H2O2 oxidative damage, run 3, with H2O2
pIC50: −log10 of the molar value.

[
  {
    "Molecule": "COc1cc(-c2cc(C(=O)Nc3cccc(C(C)=O)c3)c3cc(Br)ccc3n2)cc(OC)c1OC",
    "pIC50": "< 4.10"
  }
]

// each molecule listed below needs its pIC50
1. CCOC(=O)c1cccc(NC(=O)c2cc(-c3cc(OC)c(OC)c(OC)c3)nc3ccc(C)cc23)c1
2. CCOC(=O)c1cccc(NC(=O)CNC(=O)c2cc(-c3cc(OC)c(OC)c(OC)c3)nc3ccc(F)cc23)c1
3. COc1cc(-c2cc(C(=O)NCC(=O)Nc3ccc(C(C)=O)cc3)c3ccccc3n2)cc(OC)c1OC
4. COc1ccc2c(c1OC)C(=O)N1c3ccccc3C(=O)N(Cc3ccc(F)cc3)C21 (stereo not drawn)
5. COc1ccc2c(c1OC)C(=O)N1c3ccccc3C(=O)N(Cc3ccccc3C)C21 (stereo not drawn)
6. COc1cc(-c2cc(C(=O)Nc3cccc(C(N)=O)c3)c3ccccc3n2)cc(OC)c1OC

[5.59, 6.28, 5.79, "< 4.10", "< 4.10", 5.60]

---

Provide the recorded IC50 for the entries that follow.
tested on: HL-1; test: cardiomyocyte survival under oxidative or metabolic stress – cell-based, panel, H9c2 and HL-1, H2O2, 2-deoxyglucose, ATP luminescence, SAR follow-up (AID 651642); conditions: H9c2/HL-1 cardiomyocyte 2-deoxyglucose damage, run 3, with 2-deoxyglucose

Worked examples follow.
[
  {
    "Compound": "CCOC(=O)c1cccc(NC(=O)c2cc(-c3cc(OC)c(OC)c(OC)c3)nc3c(Cl)cccc23)c1",
    "IC50": "> 79 µM"
  },
  {
    "Compound": "CCOC(=O)c1cccc(NC(=O)CNC(=O)c2cc(-c3cc(OC)c(OC)c(OC)c3)nc3ccc(OC)cc23)c1",
    "IC50": "2.93 µM"
  }
]

// each compound listed below needs its IC50
1. COc1cc(-c2cc(C(=O)Nc3cccc(C(=O)NC4CC4)c3)c3ccccc3n2)cc(OC)c1OC
2. COc1cc(-c2cc(C(=O)NCC(=O)Nc3cccc(C(C)=O)c3)c3cc(C)ccc3n2)cc(OC)c1OC
3. CCOC(=O)c1cccc(NC(=O)c2cc(-c3cc(OC)c(OC)c(OC)c3)nc3ccc(OC)cc23)c1
4. COc1ccc(NC(=O)CNC(=O)c2cc(-c3cc(OC)c(OC)c(OC)c3)nc3ccccc23)cc1
5. COc1cccc(CNC(=O)CNC(=O)c2cc(-c3cc(OC)c(OC)c(OC)c3)nc3ccccc23)c1
6. COc1cc(-c2cc(C(=O)Nc3cccc(C#N)c3)c3ccccc3n2)cc(OC)c1OC
7. COc1cc(-c2cc(C(=O)Nc3cccc(C(=O)N(C)C)c3)c3ccccc3n2)cc(OC)c1OC
8. COc1ccc2c(c1OC)C(=O)N1c3ccccc3C(=O)N(Cc3ccncc3)C21 (stereo not drawn)

1: 7.05 µM; 2: 29.8 µM; 3: > 79 µM; 4: 8.55 µM; 5: 17.7 µM; 6: > 79 µM; 7: 24.5 µM; 8: > 79 µM

// each compound listed below needs its IC50
1. COc1cc(-c2cc(C(=O)Nc3cccc(C(C)=O)c3)c3cc(F)ccc3n2)cc(OC)c1OC
2. CCOC(=O)c1cccc(NC(=O)CNC(=O)c2cc(-c3cc(OC)c(OC)c(OC)c3)nc3ccc(Br)cc23)c1
3. COc1ccc2c(c1OC)C(=O)N1c3ccccc3C(=O)N(Cc3c(Cl)cccc3Cl)C21 (stereo not drawn)
4. COc1cc(-c2cc(C(=O)NCC(=O)Nc3ccc(C(C)=O)cc3)c3cc(C)ccc3n2)cc(OC)c1OC
5. COc1ccccc1CN1C(=O)c2ccccc2N2C(=O)c3c(ccc(OC)c3OC)C12 (stereo not drawn)
6. COc1cc(-c2cc(C(=O)NCC(=O)Nc3ccc(C(C)=O)cc3)c3cc(F)ccc3n2)cc(OC)c1OC
7. COc1cc(-c2cc(C(=O)NCC(=O)Nc3cccc(C(C)=O)c3)c3cc(F)ccc3n2)cc(OC)c1OC
8. COc1cc(-c2cc(C(=O)Nc3cccc(C(C)=O)c3)c3cc(C)ccc3n2)cc(OC)c1OC

1. > 79 µM
2. 1.96 µM
3. > 79 µM
4. 5.75 µM
5. 6.95 µM
6. > 79 µM
7. 8.99 µM
8. > 79 µM

# credit: PubChem BioAssay AID651642
